Tested on: KM12 colon
Assay: NCI-60 one-dose screen, 48 h (100 = growth as untreated, 0 = no growth, -100 = all killed)
Conditions: 10 µM unless noted
Compounds without any hit were thinned out: in the full panel of roughly 83,000, 20% have a hit.
Kindly state growth for each of the entries shown.
Answers are plain numbers, in %.

Here is how some molecules turned out for growth.
{"columns": ["molecule", "result"],
 "data": [
  ["N#CC1=C(N)Oc2c(sc3c(F)cccc23)C1c1ccc(Cl)cc1 (centres undefined)", 33.9],
  ["O=C1C(=O)c2ccccc2C(O)=C1CCCc1ccc(C2CCCCC2)cc1", 24.2],
  ["CCSc1sc(-c2ccc(C)cc2)nc1[P+](c1ccccc1)(c1ccccc1)c1ccccc1", -63.2]
]}

QUERY: What growth value was documented for this molecule, `CC(C)(C)n1cc(-c2ccnc(NCCCNS(=O)(=O)c3ccc(Cl)cc3)c2)c(-c2cccc(F)c2)n1` ?
RESULT: 60.5
